measured_on: tubulin/RB3-stathmin-like-domain (RB3-SLD-tdm) complex (Sus scrofa, UniProt P02550+P02554)
Construct: purchased Cytoskeleton, Inc. T240; host or cells: RB3-SLD was made in house in E. coli
experimental_details: Tubulin Peptide-Binding Site Competition Assay (fluorescence polarization)
Parameters: species or system Porcine
condition_label: FP competition with BODIPY-labeled vinca peptide probe; read after five hours at 22° C.; read-out: Tubulin Peptide-Binding Site Competition Assay IC50
Could you please classify the records by IC50 using these ranges: c1 (below 0.01 µM), c2 (0.01 µM to below 0.02 µM), c3 (0.02 µM or more)

Q) Which of the defined bands does the recorded IC50 of CC[C@H](C)[C@H](NC(=O)[C@@]1(C)CCCN1C)C(=O)N(C)[C@H](C[C@@H](OC(C)=O)c1nc(C(=O)N[C@H](COCc2ccccc2)Cc2ccccc2)cs1)C(C)C sit within?
A) c2

Q) Which class holds CC[C@H](C)[C@H](NC(=O)[C@@]1(C)CCCN1C)C(=O)N(C)[C@H](C[C@@H](OC(C)=O)c1nc(C(=O)NC(Cc2ccccc2)c2ccc(N(C)C)cc2)cs1)C(C)C (some centres unmarked) ?
A) c3

Q) Category lookup for the compound CC[C@H](C)[C@H](NC(=O)[C@@]1(C)CCCN1C)C(=O)N(C)[C@H](C[C@@H](OC(C)=O)c1nc(C(=O)NCCc2cccc3ccccc23)cs1)C(C)C
A) c3

Q) For the record CC[C@H](C)[C@H](NC(=O)[C@H]1CCCCN1C)C(=O)N(C)[C@H](C[C@@H](OC(C)=O)c1nc(C(=O)NCC2OCCc3ccccc32)cs1)C(C)C (some centres unmarked) , report the class its IC50 corresponds to.
A) c1

Q) Using the reported IC50, which band applies to CC[C@H](C)[C@H](NC(=O)C(C)(C)N(C)C)C(=O)N(C)[C@H](C[C@@H](OC(C)=O)c1nc(C(=O)N[C@@H](Cc2ccccc2)C[C@H](C)C(=O)OC)cs1)C(C)C ?
A) c3

Q) Exam item: assign CCNC(=O)O[C@H](C[C@H](C(C)C)N(C)C(=O)[C@@H](NC(=O)C12CCCC(CCC1)N2C)[C@@H](C)CC)c1nc(C(=O)N[C@@H](Cc2ccc(N)cc2)C[C@H](C)C(=O)O)cs1 to the correct category.
A) c1

Q) Entry CC[C@H](C)[C@H](NC(=O)[C@@]1(C)CCCN1C)C(=O)N(C)[C@H](C[C@@H](OC(C)=O)c1nc(C(=O)NCCC2CCCCC2)cs1)C(C)C belongs to which category?
A) c3

Q) Consider CC[C@H](C)[C@H](NC(=O)C12CC(CN1C)C2)C(=O)N(C)[C@H](C[C@@H](OC(C)=O)c1nc(C(=O)N[C@@H](Cc2ccccc2)C[C@H](C)C(=O)OC)cs1)C(C)C . To which IC50 class does it belong?
A) c2

Q) Determine which band this compound sits in: CC[C@H](C)[C@H](NC(=O)[C@H]1CCCCN1C)C(=O)N(C)[C@H](C[C@@H](OC(C)=O)c1nc(C(=O)NCCn2ccccc2=O)cs1)C(C)C
A) c1

Q) Band for the recorded IC50 of CC[C@H](C)[C@H](NC(=O)[C@@]1(C)CCCN1C)C(=O)N(C)[C@H](C[C@@H](O)c1nc(C(=O)N[C@@H](Cc2ccc(N)cc2)C[C@H](C)C(=O)O)cs1)C(C)C ?
A) c2

Q) Form field 'band' for CC[C@H](C)[C@H](NC(=O)[C@H]1CCCCN1C)C(=O)N(C)[C@H](C[C@@H](OC(C)=O)c1nc(C(=O)NC(Cc2ccccc2)c2nc(C(=O)O)cs2)cs1)C(C)C (some centres unmarked)
A) c1

---

Tested on: HT-29 cells
experimental_details: In vitro cell assay (MTS cell viability), HT-29 (target non-expressing)
Format: cell-based
condition_label: Homo sapiens, HT-29, 96 h, free compounds; 96 hours after treatment; read-out: HT29 IC50
For each record, write down the corresponding pIC50.
Reminder that pIC50 is minus the log10 of a molar concentration.

Q) Suppose we examine the molecule CC[C@H](C)[C@H](NC(=O)[C@@]1(C)CCCN1C)C(=O)N(C)[C@H](C[C@@H](OC(C)=O)c1nc(C(=O)N[C@@H](Cc2ccccc2)C(O)c2nccs2)cs1)C(C)C (stereo partly shown) ; what pIC50 value has been reported?
A) 8.65

Q) Given the molecule CC[C@H](C)[C@H](NC(=O)C12CC(CCN1C)C2)C(=O)N(C)[C@H](C[C@@H](OC(C)=O)c1nc(C(=O)N[C@@H](Cc2ccccc2)C[C@H](C)C(=O)OC)cs1)C(C)C , what is its reported pIC50?
A) 10.20

Q) Consider the molecule CC[C@H](C)[C@H](NC(=O)[C@@]1(C)CCCN1C)C(=O)N(C)[C@H](C[C@@H](NC(C)=O)c1nc(C(=O)N[C@@H](Cc2ccc(N)cc2)C[C@H](C)C(=O)O)cs1)C(C)C and give its measured pIC50.
A) 7.13

Q) Value lookup for pIC50; key = CCNC(=O)O[C@H](C[C@H](C(C)C)N(C)C(=O)[C@@H](NC(=O)[C@@]1(C)CCCN1C)[C@@H](C)CC)c1nc(C(=O)N[C@H](C(=O)OC)C(C)O)cs1 (stereo partly shown)
A) 7.84

Q) Requested read-out: pIC50. Entry: CC[C@H](C)[C@H](NC(=O)[C@@]1(C)CCCN1C)C(=O)N(C)[C@H](C[C@@H](OC(C)=O)c1nc(C(=O)N[C@H](CNS(C)(=O)=O)Cc2ccccc2)cs1)C(C)C
A) 8.83

Q) Recorded pIC50 of CC[C@H](C)[C@H](NC(=O)[C@@]1(C)CCCN1C)C(=O)N(C)[C@H](C[C@@H](OC(C)=O)c1nc(C(=O)N[C@@H](Cc2ccccc2)[C@@H](O)C(=O)OC)cs1)C(C)C , please.
A) 8.66

Q) Return reported pIC50; argument: CC[C@H](C)[C@H](NC(=O)[C@@]1(C)CCCN1C)C(=O)N(C)[C@H](C[C@@H](OC(C)=O)c1nc(C(=O)N[C@@H](Cc2ccc(N)cc2)C[C@H](C)C(=O)O)cs1)C(C)C
A) 9.19

Q) Quick one: pIC50 of CC[C@H](C)[C@H](NC(=O)[C@@]1(C)CCCN1C)C(=O)N(C)[C@H](C[C@@H](OC(C)=O)c1nc(C(=O)NC(CO)Cc2ccccc2)cs1)C(C)C (stereo partly shown) ?
A) 8.05

Q) Value lookup for pIC50; key = CC[C@H](C)[C@H](NC(=O)[C@@]1(C)CCCN1C)C(=O)N(C)[C@H](C[C@@H](OC(C)=O)c1nc(C(=O)N[C@@H](Cc2ccccc2)C[C@H](C)C(=O)OC)cs1)C(C)C
A) 8.96

---

measured_on: tubulin/RB3-stathmin-like-domain (RB3-SLD-tdm) complex (Sus scrofa, UniProt P02550+P02554)
Construct: purchased Cytoskeleton, Inc. T240; host or cells: RB3-SLD was made in house in E. coli
experimental_details: Tubulin Peptide-Binding Site Competition Assay (fluorescence polarization)
Design: species or system Porcine
condition_label: FP competition with BODIPY-labeled vinca peptide probe; read after five hours at 22° C.; read-out: Tubulin Peptide-Binding Site Competition Assay IC50
Provide the reported IC50 of each item.
Number in nM, nothing else.

Q) Could you share which IC50 value was measured for CC[C@H](C)[C@H](NC(=O)[C@@]1(C)CCCN1C)C(=O)N(C)[C@H](C[C@@H](OC(C)=O)c1nc(C(=O)N[C@@H](Cc2ccccc2)CN2CCOCC2)cs1)C(C)C [#B72] ?
A) 32.9

Q) Would you kindly share the measured IC50 for CC[C@H](C)[C@H](NC(=O)C1(N(C)C)CCCC1)C(=O)N(C)[C@H](C[C@@H](OC(C)=O)c1nc(C(=O)N[C@@H](Cc2ccccc2)C[C@H](C)C(=O)OC)cs1)C(C)C [#B1] ?
A) 250

Q) Which IC50 reading was recorded for the compound CC[C@H](C)[C@H](NC(=O)C(C)(C)N)C(=O)N(C)[C@H](C[C@@H](OC(C)=O)c1nc(C(=O)N[C@@H](Cc2ccccc2)C[C@H](C)C(=O)OC)cs1)C(C)C [#B35] ?
A) 96.8

Q) Any idea what its IC50 is? The compound is CC[C@H](C)[C@H](NC(=O)[C@@]1(C)CCCN1C)C(=O)N(C)[C@H](C[C@@H](OC(C)=O)c1nc(C(=O)NC2(c3ccccc3)CC2)cs1)C(C)C [#B52]
A) 61.8

Q) Given CC[C@H](C)[C@H](NC(=O)[C@@]1(C)CCCN1C)C(=O)N(C)[C@H](C[C@@H](OC(C)=O)c1nc(C(=O)NCCc2cncnc2)cs1)C(C)C [#B71] , state its recorded IC50.
A) 85.1

Q) # lookup: IC50 of CC[C@H](C)[C@H](NC(=O)[C@@]1(C)CCCN1C)C(=O)N(C)[C@H](C[C@@H](OC(=O)NC)c1nc(C(=O)N[C@@H](Cc2ccc(N)cc2)C[C@H](C)C(=O)O)cs1)C(C)C [#B30]
A) 3.2

Q) Look up IC50 for this compound: CC[C@H](C)[C@H](NC(=O)[C@@]1(C)CCCN1C)C(=O)N(C)[C@H](C[C@@H](OC(C)=O)c1nc(C(=O)NCCc2cscn2)cs1)C(C)C [#B76]
A) 19.9

Q) Any idea what IC50 was measured for CC[C@H](C)[C@H](NC(=O)[C@@]1(C)CCCN1C)C(=O)N(C)[C@H](C[C@@H](OC(C)=O)c1nc(C(=O)NCCN2CCOC2=O)cs1)C(C)C [#B64] ?
A) 73

Q) // query IC50 value for entry CC[C@H](C)[C@H](NC(=O)[C@@]1(C)CCCN1C)C(=O)N(C)[C@H](C[C@@H](OC(C)=O)c1nc(C(=O)NCCn2cccn2)cs1)C(C)C [#B56]
A) 33.6

Q) Tell me the measured IC50 of CC[C@H](C)[C@H](NC(=O)[C@@]1(C)CCCN1C)C(=O)N(C)[C@H](C[C@@H](OC(C)=O)c1nc(C(=O)NCCN2CCOCC2)cs1)C(C)C [#B46] , please.
A) 282

Q) // query IC50 value for entry CC[C@H](C)[C@H](NC(=O)[C@@]1(C)CCCN1C)C(=O)N(C)[C@H](C[C@@H](OC(C)=O)c1nc(C(=O)NCCc2cnccn2)cs1)C(C)C [#B68]
A) 84.7
